Values compiled from ChEMBL document CHEMBL1145884.

tested on: Enterobacter cloacae; assay: Antibacterial activity against Enterobacter cloacae 1321E; format: functional
Quantity Measured: MIC

{"Molecule": "C[C@@H](O)[C@H]1C(=O)N2C(C(=O)O)=C(S[C@@H]3CN[C@H](C(=O)N4CC/C(=N/O)C4)C3)[C@H](C)[C@H]12", "Target Desc": "Enterobacter cloacae", "Data Value": "0.013 µg/mL"}
{"Molecule": "CCOC(=O)C1CN(C(=O)[C@@H]2C[C@H](SC3=C(C(=O)O)N4C(=O)[C@H]([C@@H](C)O)[C@H]4[C@H]3C)CN2)C/C1=N\\O (stereo partly drawn)", "Target Desc": "Enterobacter cloacae", "Data Value": "0.025 µg/mL"}
{"Molecule": "CO/N=C1/CCN(C(=O)[C@@H]2C[C@H](SC3=C(C(=O)O)N4C(=O)[C@H]([C@@H](C)O)[C@H]4[C@H]3C)CN2)C1", "Target Desc": "Enterobacter cloacae", "Data Value": "0.049 µg/mL"}
{"Molecule": "C[C@@H](O)[C@H]1C(=O)N2C(C(=O)O)=C(S[C@@H]3CN[C@H](C(=O)N4C/C(=N\\O)C(CN)C4)C3)[C@H](C)[C@H]12 (stereo partly drawn)", "Target Desc": "Enterobacter cloacae", "Data Value": "0.049 µg/mL"}
{"Molecule": "C[C@@H](O)[C@H]1C(=O)N2C(C(=O)O)=C(S[C@@H]3CN[C@H](C(=O)N4C/C(=N\\O)C(C(=O)O)C4)C3)[C@H](C)[C@H]12 (stereo partly drawn)", "Target Desc": "Enterobacter cloacae", "Data Value": "0.025 µg/mL"}
{"Molecule": "CO/N=C1\\CN(C(=O)[C@@H]2C[C@H](SC3=C(C(=O)O)N4C(=O)[C@H]([C@@H](C)O)[C@H]4[C@H]3C)CN2)CC1CN (stereo partly drawn)", "Target Desc": "Enterobacter cloacae", "Data Value": "0.025 µg/mL"}
{"Molecule": "C[C@@H](O)[C@H]1C(=O)N2C(C(=O)O)=C(SCCNC=N)C[C@H]12 [IMIPENEM ANHYDROUS]", "Target Desc": "Enterobacter cloacae", "Data Value": "0.195 µg/mL"}
{"Molecule": "C[C@@H](O)[C@H]1C(=O)N2C(C(=O)O)=C(S[C@@H]3CN[C@H](C(=O)N(C)C)C3)[C@H](C)[C@H]12 [MEROPENEM]", "Target Desc": "Enterobacter cloacae", "Data Value": "0.025 µg/mL"}

###

system: Staphylococcus aureus; assay: Antibacterial activity against Staphylococcus aureus 503; type: functional
Quantity Measured: MIC (µg/mL)

{"Compound": "CCOC(=O)C1CN(C(=O)[C@@H]2C[C@H](SC3=C(C(=O)O)N4C(=O)[C@H]([C@@H](C)O)[C@H]4[C@H]3C)CN2)C/C1=N\\O (some centres not stated)", "Target Desc": "Staphylococcus aureus", "Quantity Measured": "MIC", "Data Value": 0.195}
{"Compound": "C[C@@H](O)[C@H]1C(=O)N2C(C(=O)O)=C(S[C@@H]3CN[C@H](C(=O)N(C)C)C3)[C@H](C)[C@H]12 [MEROPENEM]", "Target Desc": "Staphylococcus aureus", "Quantity Measured": "MIC", "Data Value": 0.098}
{"Compound": "C[C@@H](O)[C@H]1C(=O)N2C(C(=O)O)=C(S[C@@H]3CN[C@H](C(=O)N4CC/C(=N/O)C4)C3)[C@H](C)[C@H]12", "Target Desc": "Staphylococcus aureus", "Quantity Measured": "MIC", "Data Value": 0.098}
{"Compound": "C[C@@H](O)[C@H]1C(=O)N2C(C(=O)O)=C(S[C@@H]3CN[C@H](C(=O)N4C/C(=N\\O)C(CN)C4)C3)[C@H](C)[C@H]12 (some centres not stated)", "Target Desc": "Staphylococcus aureus", "Quantity Measured": "MIC", "Data Value": 0.098}
{"Compound": "C[C@@H](O)[C@H]1C(=O)N2C(C(=O)O)=C(SCCNC=N)C[C@H]12 [IMIPENEM ANHYDROUS]", "Target Desc": "Staphylococcus aureus", "Quantity Measured": "MIC", "Data Value": 0.013}
{"Compound": "CO/N=C1\\CN(C(=O)[C@@H]2C[C@H](SC3=C(C(=O)O)N4C(=O)[C@H]([C@@H](C)O)[C@H]4[C@H]3C)CN2)CC1CN (some centres not stated)", "Target Desc": "Staphylococcus aureus", "Quantity Measured": "MIC", "Data Value": 0.049}
{"Compound": "C[C@@H](O)[C@H]1C(=O)N2C(C(=O)O)=C(S[C@@H]3CN[C@H](C(=O)N4C/C(=N\\O)C(C(=O)O)C4)C3)[C@H](C)[C@H]12 (some centres not stated)", "Target Desc": "Staphylococcus aureus", "Quantity Measured": "MIC", "Data Value": 0.098}

###

# MIC values compiled below
system: Escherichia coli; assay: Antibacterial activity against Escherichia coli 078; type: functional
Quantity Measured: MIC (µg/mL)

{"Molecule": "C[C@@H](O)[C@H]1C(=O)N2C(C(=O)O)=C(S[C@@H]3CN[C@H](C(=O)N4C/C(=N\\O)C(CN)C4)C3)[C@H](C)[C@H]12 (stereo partly drawn)", "Target Desc": "Escherichia coli", "Data Value": 0.025}
{"Molecule": "C[C@@H](O)[C@H]1C(=O)N2C(C(=O)O)=C(S[C@@H]3CN[C@H](C(=O)N4C/C(=N\\O)C(C(=O)O)C4)C3)[C@H](C)[C@H]12 (stereo partly drawn)", "Target Desc": "Escherichia coli", "Data Value": 0.013}
{"Molecule": "C[C@@H](O)[C@H]1C(=O)N2C(C(=O)O)=C(SCCNC=N)C[C@H]12 [IMIPENEM ANHYDROUS]", "Target Desc": "Escherichia coli", "Data Value": 0.195}

###

assay: Compound was evaluated for its relative half life of hydrolysis to meropenem by partially purified porcine renal dihydropeptidase-I (DHP-I); format: functional; settings: Sus scrofa
Quick reference for relative t1/2 (DHP-I hydrolysis vs meropenem) among some compounds
Quantity Measured: relative t1/2 (DHP-I hydrolysis vs meropenem)

{"Compound": "C[C@@H](O)[C@H]1C(=O)N2C(C(=O)O)=C(S[C@@H]3CN[C@H](C(=O)N4C/C(=N\\O)C(C(=O)O)C4)C3)[C@H](C)[C@H]12 (some centres not stated)", "Data Value": 0.54}
{"Compound": "CO/N=C1\\CN(C(=O)[C@@H]2C[C@H](SC3=C(C(=O)O)N4C(=O)[C@H]([C@@H](C)O)[C@H]4[C@H]3C)CN2)CC1CN (some centres not stated)", "Data Value": 0.25}
{"Compound": "C[C@@H](O)[C@H]1C(=O)N2C(C(=O)O)=C(S[C@@H]3CN[C@H](C(=O)N4CC/C(=N/O)C4)C3)[C@H](C)[C@H]12", "Data Value": 1.03}
{"Compound": "C[C@@H](O)[C@H]1C(=O)N2C(C(=O)O)=C(S[C@@H]3CN[C@H](C(=O)N(C)C)C3)[C@H](C)[C@H]12", "Data Value": 1}
{"Compound": "CCOC(=O)C1CN(C(=O)[C@@H]2C[C@H](SC3=C(C(=O)O)N4C(=O)[C@H]([C@@H](C)O)[C@H]4[C@H]3C)CN2)C/C1=N\\O (some centres not stated)", "Data Value": 0.26}
{"Compound": "C[C@@H](O)[C@H]1C(=O)N2C(C(=O)O)=C(S[C@@H]3CN[C@H](C(=O)N4C/C(=N\\O)C(CN)C4)C3)[C@H](C)[C@H]12 (some centres not stated)", "Data Value": 0.31}
{"Compound": "C[C@@H](O)[C@H]1C(=O)N2C(C(=O)O)=C(SCCNC=N)C[C@H]12 [IMIPENEM ANHYDROUS]", "Data Value": 0.17}

###

Measured MIC of individual entries
test system: Escherichia coli; assay: Antibacterial activity against Escherichia coli 1507E; assay type: functional

{"Molecule": "CO/N=C1\\CN(C(=O)[C@@H]2C[C@H](SC3=C(C(=O)O)N4C(=O)[C@H]([C@@H](C)O)[C@H]4[C@H]3C)CN2)CC1CN (stereo not given in full)", "Result Units": "µg/mL", "MIC": 0.049}
{"Molecule": "CCOC(=O)C1CN(C(=O)[C@@H]2C[C@H](SC3=C(C(=O)O)N4C(=O)[C@H]([C@@H](C)O)[C@H]4[C@H]3C)CN2)C/C1=N\\O (stereo not given in full)", "Result Units": "µg/mL", "MIC": 0.049}
{"Molecule": "C[C@@H](O)[C@H]1C(=O)N2C(C(=O)O)=C(SCCNC=N)C[C@H]12 [IMIPENEM ANHYDROUS]", "Result Units": "µg/mL", "MIC": 0.195}
{"Molecule": "C[C@@H](O)[C@H]1C(=O)N2C(C(=O)O)=C(S[C@@H]3CN[C@H](C(=O)N4C/C(=N\\O)C(C(=O)O)C4)C3)[C@H](C)[C@H]12 (stereo not given in full)", "Result Units": "µg/mL", "MIC": 0.025}
{"Molecule": "C[C@@H](O)[C@H]1C(=O)N2C(C(=O)O)=C(S[C@@H]3CN[C@H](C(=O)N4C/C(=N\\O)C(CN)C4)C3)[C@H](C)[C@H]12 (stereo not given in full)", "Result Units": "µg/mL", "MIC": 0.049}
